System: NCI-H292 lung cancer cells
Test: FDA drug screening, complete media vs cholesterol-free media with simvastatin (TABLE 2)
Assay type: cell-based, human
Conditions: NCI-H292 cells, FDA drug library screen, complete media
# Complete Media >= 1 gives condition met, anything below gives condition not met

Below are worked cases with known answers.
O=C(O)C1=C(CSc2nnnn2CS(=O)(=O)O)CS[C@@H]2[C@H](NC(=O)[C@H](O)c3ccccc3)C(=O)N12 [Cefonicid (sodium)] ... condition met
Cn1c([N+](=O)[O-])cnc1COC(N)=O ... condition met
CC1(C)[C@@H](O[C@H]2O[C@H](C(=O)O)[C@@H](O)[C@H](O)[C@H]2O[C@@H]2O[C@H](C(=O)O)[C@@H](O)[C@H](O)[C@H]2O)CC[C@]2(C)[C@H]3C(=O)C=C4[C@@H]5C[C@@](C)(C(=O)O)CC[C@]5(C)CC[C@@]4(C)[C@]3(C)CC[C@@H]12 ... condition not met

Q: For this compound, is measured Complete Media 1 or higher? `NC(=O)N[C@@H](CCC(=O)O)C(=O)O`
Result: condition met

Q: For this compound, is measured Complete Media 1 or higher? `CO[C@H]1/C=C/O[C@@]2(C)Oc3c(C)c(O)c4c(O)c(c(/C=N/N5CCN(C6CCCC6)CC5)c(O)c4c3C2=O)NC(=O)/C(C)=C\C=C\[C@H](C)[C@H](O)[C@@H](C)[C@@H](O)[C@@H](C)[C@H](OC(C)=O)[C@@H]1C`
Result: condition met
